Test: Single rising dose plasma PK, OZ439 capsule, fasted healthy subjects
Assay type: in vivo, human
Details: both, human, plasma, oral, 100 mg
readoutLabel: AUC(0-t) (ng·h/mL)
One number for each entry, in ng·h/mL.

[in] Give the measured AUC(0-t) of c1cc([C@H]2CC[C@]3(CC2)OO[C@]2(O3)C3CC4CC(C3)CC2C4)ccc1OCCN1CCOCC1 [OZ439] .
[out] 249

----------
Assay: Single rising dose plasma PK, OZ439 capsule, fasted healthy subjects
Type: in vivo, human
Details: human, plasma, oral, 1200 mg
readoutLabel: Tmax (h)
Numbers only, in h.

[in] Give the measured Tmax of c1cc([C@H]2CC[C@]3(CC2)OO[C@]2(O3)C3CC4CC(C3)CC2C4)ccc1OCCN1CCOCC1 [OZ439] .
[out] 3

----------
Assay: Single rising dose plasma PK, OZ439 oral dispersion, fasted healthy subjects
Assay type: in vivo, human
Conditions: human, plasma, po
readoutLabel: Tmax

[in] Give the measured Tmax of c1cc([C@H]2CC[C@]3(CC2)OO[C@]2(O3)C3CC4CC(C3)CC2C4)ccc1OCCN1CCOCC1 .
[out] 3 to 5 h

----------
Assay: Single rising dose plasma PK, OZ439 capsule, fasted healthy subjects
Type: in vivo, human
Conditions: human, plasma, oral, 800 mg
readoutLabel: AUC(0-t)

[in] Give the measured AUC(0-t) of c1cc([C@H]2CC[C@]3(CC2)OO[C@]2(O3)C3CC4CC(C3)CC2C4)ccc1OCCN1CCOCC1 [OZ439] .
[out] 3010 ng·h/mL

----------
Assay: Single rising dose plasma PK, OZ439 capsule, fasted healthy subjects
Format: in vivo, human
Conditions: both, human, plasma, oral, 400 mg
readoutLabel: Cmax
Could you kindly put the unit after your number?

[in] Give the measured Cmax of c1cc([C@H]2CC[C@]3(CC2)OO[C@]2(O3)C3CC4CC(C3)CC2C4)ccc1OCCN1CCOCC1 .
[out] 135 ng/mL

----------
Assay: Multiple rising dose plasma PK, OZ439 oral dispersion once daily for 3 days
Format: in vivo, human
Details: human, plasma, po, 800 mg, Cmax, 800 mg once a day for 3 days, oral dispersion, day 1; geometric mean (CV%)
readoutLabel: Cmax (ng/mL)
Numbers only, in ng/mL.

[in] Give the measured Cmax of c1cc([C@H]2CC[C@]3(CC2)OO[C@]2(O3)C3CC4CC(C3)CC2C4)ccc1OCCN1CCOCC1 .
[out] 1130

----------
Assay: Single rising dose plasma PK, OZ439 oral dispersion, fasted healthy subjects
Format: in vivo, human
Details: human, plasma, po, 400 mg
readoutLabel: AUC(0-inf) (ng·h/mL)
Give bare numbers, in ng·h/mL.

[in] Give the measured AUC(0-inf) of c1cc([C@H]2CC[C@]3(CC2)OO[C@]2(O3)C3CC4CC(C3)CC2C4)ccc1OCCN1CCOCC1 [OZ439] .
[out] 5540

----------
Assay: Multiple rising dose plasma PK, OZ439 oral dispersion once daily for 3 days
Type: in vivo, human
Settings: human, plasma, po, 400 mg, Cmax, 400 mg once a day for 3 days, oral dispersion, day 3; geometric mean (CV%)
readoutLabel: Cmax (µg/mL)
Numbers only, in µg/mL.

[in] Give the measured Cmax of c1cc([C@H]2CC[C@]3(CC2)OO[C@]2(O3)C3CC4CC(C3)CC2C4)ccc1OCCN1CCOCC1 .
[out] 0.764

----------
Test: Single rising dose plasma PK, OZ439 capsule, fasted healthy subjects
Type: in vivo, human
Conditions: both, human, plasma, oral, 200 mg
readoutLabel: AUC(0-t)
Could you kindly put the unit after your number?

[in] Give the measured AUC(0-t) of c1cc([C@H]2CC[C@]3(CC2)OO[C@]2(O3)C3CC4CC(C3)CC2C4)ccc1OCCN1CCOCC1 .
[out] 890 ng·h/mL
